assayedTarget: HCoV-OC43 N1-173 (N-terminal domain) (Human coronavirus OC43, UniProt P33469 1-173)
Sequence (P33469 1-173): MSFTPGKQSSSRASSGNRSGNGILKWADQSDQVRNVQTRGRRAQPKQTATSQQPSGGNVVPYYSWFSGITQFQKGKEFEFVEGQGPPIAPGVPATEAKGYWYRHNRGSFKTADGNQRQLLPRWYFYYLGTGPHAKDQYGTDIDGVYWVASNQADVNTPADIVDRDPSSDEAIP
methodSummary: SPR
measuredAttribute: Kd (nM)
I only need the number, in nM, no unit after it.

Request: Given UCUAAACUCUAAACUCUAAACUCUAAAC (ssRNA) [(UCUAAAC)4 intergenic repeat RNA] , state its recorded Kd.
Result: 68.9
